Attribute: pIC50
Molecular target: human IDO1 (Homo sapiens)
Sequence (P14902 whole entry): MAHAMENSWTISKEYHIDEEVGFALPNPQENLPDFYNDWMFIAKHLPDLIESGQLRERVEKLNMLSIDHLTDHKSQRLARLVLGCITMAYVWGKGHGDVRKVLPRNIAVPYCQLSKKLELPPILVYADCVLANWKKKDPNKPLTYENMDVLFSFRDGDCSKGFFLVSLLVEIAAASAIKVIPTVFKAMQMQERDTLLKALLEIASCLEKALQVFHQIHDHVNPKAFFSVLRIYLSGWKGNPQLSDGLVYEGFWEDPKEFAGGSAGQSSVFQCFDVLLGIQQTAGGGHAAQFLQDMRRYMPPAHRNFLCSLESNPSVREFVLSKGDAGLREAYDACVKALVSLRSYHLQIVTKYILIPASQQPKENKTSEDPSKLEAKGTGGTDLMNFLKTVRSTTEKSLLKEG
Assay: HEK Human IDO-1 inhibition assay (kynurenine readout, Ehrlich reagent, absorbance 490 nm)
Settings: human IDO1/HEK293 cells, incubated 20 hours with compound; 500 nM reference standard = 100% inhibition
pIC50: −log10 of the molar value.

Look over these answered cases.
1) C=C(C)CN1CCC(N(CC(=C)C)c2ccc(OCC(=O)O)cc2NC(=O)Nc2ccc(Cl)cc2F)CC1; > 7.00
2) CC(C)CN(c1ccc(OCC(=O)O)cc1NC(=O)Nc1cccnc1)C1CCCCC1; ≤ 7.00
3) CC(C)CN(c1ccc(OCC(=O)O)cc1NC(=O)Nc1cc(F)cc(Cl)c1)C1CCCCC1; ≤ 7.00

Now examine the next entry.
The compound listed as Cc1cnc(NC(=O)COc2ccc(N(CC(C)C)C3CCCCC3)c(NC(=O)Nc3ccc(Cl)cc3F)c2)s1 shows pIC50 equal to ≤ 7.00
